system: human IL-1β; assay: IL-1β assay: suppression of IL-1β production by LPS-stimulated PBMC (sandwich ELISA); assay type: cell-based; settings: LPS 1 μg/ml, 72 hours at 37° C.
Test readout: IC50 (µM)

1. COc1ccc(-c2cnc3nc(N)nc(N4CC=CCC4)c3n2)cc1OC [Example 119]	15
